- Test details: AUC (0 to X) in C57BL/6 mouse at 1 mg/kg, iv by LC-MS/MS analysis
- Type: ADME, organism-based
- Parameters: dose 1 mg/kg
- Applied conditions: in vivo
Numbered stars: 1 amine (or outer) side, 2 acyl side, 3 side chain; on linkers, the order of the positions; unused ones are H or OH. Bridge positions count the residues as written; N and C are the ends. Square brackets hold non-standard residues; d marks the D form. Peptide text beside a SMILES is read from it. Trp(5-F) = N[C@@H](Cc1c[nH]c2ccc(F)cc12)C(=O)O; Lys(Me3) = C[N+](C)(C)CCCC[C@H](N)C(=O)O; X1 = O=C(CCSCc1cccc(CSCCN[*:1])c1)[*:2]; mXylylene = c1cc(C[*:1])cc(C[*:2])c1; αMeP = C[C@@]1(C(=O)O)CCCN1; Mpa = O=C(O)CCS
Endpoint: AUC (µM·h)
Quick reminder: number only, in µM·h, skip the unit.

Please review the following examples before continuing.
| Molecule | Numeric value |
| --- | --- |
| C[C@H]1NC(=O)[C@H](CCCCN)NC(=O)CCSCc2cccc(c2)CSC[C@@H](C(N)=O)NC(=O)[C@]2(C)CCCN2C(=O)[C@H](Cc2ccc(O)cc2)NC(=O)[C@H]([C@@H](C)O)NC(=O)[C@@H]2C[C@H](F)CN2C(=O)[C@H](Cc2c[nH]c3ccc(F)cc23)NC(=O)[C@H](Cc2c[nH]c3ccc(F)cc23)NC1=O | 0.171 |
| COc1ccc(C[C@@H]2NC(=O)[C@H]([C@@H](C)O)NC(=O)[C@@H]3CCC(=O)NCc4cccc(c4)C[C@H](NC(=O)[C@@H](C)NC(=O)[C@H](C)NC(=O)CCSCc4cccc(c4)CSCCNC(=O)[C@]4(C)CCCN4C2=O)C(=O)N[C@@H](Cc2c[nH]c4ccc(F)cc24)C(=O)N3)cc1 | 0.84 |
| C[C@@]12CCCN1C(=O)[C@H](Cc1ccc(O)cc1)NC(=O)[C@H](Cc1cnc[nH]1)NC(=O)[C@H](CC(=O)O)NC(=O)[C@H](Cc1c[nH]c3ccc(F)cc13)NC(=O)[C@H](Cc1c[nH]c3ccc(F)cc13)NC(=O)CNC(=O)[C@H](CCCCN)NC(=O)CCSCc1cccc(c1)CSC[C@@H](C(N)=O)NC2=O ([Mpa]KG[Trp(5-F)][Trp(5-F)]DHY[αMeP]C-NH2; linker 1-10 via mXylylene) | 0.185 |

Kindly review the next molecule as well.
input: Could you share which AUC value was measured for COc1ccc(C[C@@H]2NC(=O)[C@H](Cc3cnc[nH]3)NC(=O)[C@H](CC(=O)O)NC(=O)[C@H](Cc3c[nH]c4ccc(F)cc34)NC(=O)[C@H](Cc3c[nH]c4ccc(F)cc34)NC(=O)[C@@H](C)NC(=O)[C@H](CCCC[N+](C)(C)C)NC(=O)CCSCc3cccc(c3)CSCCNC(=O)[C@]3(C)CCCN3C2=O)cc1 (cyclo(DHY(Me)[αMeP][X1][Lys(Me3)][dA][Trp(5-F)][Trp(5-F)])) ?
output: 0.896

###

# pKi listing for each entry below
- Study system: PCSK9/LDLR (Homo sapiens)
- Sequence (Q8NBP7 31-152 limits assumed): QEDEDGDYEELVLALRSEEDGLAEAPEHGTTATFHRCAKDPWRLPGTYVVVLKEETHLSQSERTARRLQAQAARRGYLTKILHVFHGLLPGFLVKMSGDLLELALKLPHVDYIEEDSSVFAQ
- Sequence (Q8NBP7 153-692 limits assumed): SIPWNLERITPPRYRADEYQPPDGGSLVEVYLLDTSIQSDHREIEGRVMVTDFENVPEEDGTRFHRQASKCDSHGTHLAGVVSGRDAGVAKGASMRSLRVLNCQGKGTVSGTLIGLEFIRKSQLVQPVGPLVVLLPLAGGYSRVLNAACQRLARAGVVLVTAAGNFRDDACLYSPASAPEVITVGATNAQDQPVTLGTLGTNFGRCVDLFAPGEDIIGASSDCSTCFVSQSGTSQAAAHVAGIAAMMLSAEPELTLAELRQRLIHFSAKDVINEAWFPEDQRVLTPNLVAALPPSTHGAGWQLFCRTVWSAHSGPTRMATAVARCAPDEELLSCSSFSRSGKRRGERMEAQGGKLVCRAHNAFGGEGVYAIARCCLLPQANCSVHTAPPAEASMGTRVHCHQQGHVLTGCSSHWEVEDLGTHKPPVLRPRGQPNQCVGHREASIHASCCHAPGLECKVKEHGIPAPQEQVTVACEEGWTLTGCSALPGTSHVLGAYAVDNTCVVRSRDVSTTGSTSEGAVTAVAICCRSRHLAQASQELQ
- Sequence (P01130 22-860 partner limits assumed): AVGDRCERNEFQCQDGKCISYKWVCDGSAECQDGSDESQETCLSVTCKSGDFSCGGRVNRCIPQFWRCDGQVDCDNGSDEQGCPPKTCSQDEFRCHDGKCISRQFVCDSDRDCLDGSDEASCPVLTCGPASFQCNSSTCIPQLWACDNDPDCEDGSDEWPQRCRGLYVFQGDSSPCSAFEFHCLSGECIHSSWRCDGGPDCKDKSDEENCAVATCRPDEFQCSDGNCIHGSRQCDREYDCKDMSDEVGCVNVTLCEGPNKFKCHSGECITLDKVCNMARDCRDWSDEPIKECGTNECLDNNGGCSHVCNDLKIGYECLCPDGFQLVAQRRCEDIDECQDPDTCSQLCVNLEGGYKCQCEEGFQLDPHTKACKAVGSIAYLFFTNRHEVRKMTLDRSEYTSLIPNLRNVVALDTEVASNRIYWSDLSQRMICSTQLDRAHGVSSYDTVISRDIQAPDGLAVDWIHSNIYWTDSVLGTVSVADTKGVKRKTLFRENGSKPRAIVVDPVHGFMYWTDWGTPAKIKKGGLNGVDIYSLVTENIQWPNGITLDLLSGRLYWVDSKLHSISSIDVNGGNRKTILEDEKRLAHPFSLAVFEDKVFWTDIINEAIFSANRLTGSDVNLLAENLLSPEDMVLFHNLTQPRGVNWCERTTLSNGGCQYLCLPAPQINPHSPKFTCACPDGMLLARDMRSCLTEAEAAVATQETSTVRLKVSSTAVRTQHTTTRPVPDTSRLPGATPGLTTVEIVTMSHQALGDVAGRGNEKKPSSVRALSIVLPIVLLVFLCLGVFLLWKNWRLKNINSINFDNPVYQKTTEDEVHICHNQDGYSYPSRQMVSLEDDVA
- Test details: Inhibition of avi-tagged-biotinylated human PCSK9 interaction with His-tagged human LDLR EGFa domain by LANCE Ulight Streptavidin based TR-FRET assay
Numbered stars: 1 amine (or outer) side, 2 acyl side, 3 side chain; on linkers, the order of the positions; unused ones are H or OH. Bridge positions count the residues as written; N and C are the ends. Square brackets hold non-standard residues; d marks the D form. Peptide text beside a SMILES is read from it. Trp(5-F) = N[C@@H](Cc1c[nH]c2ccc(F)cc12)C(=O)O; mXylylene = c1cc(C[*:1])cc(C[*:2])c1; NMeD = CN[C@@H](CC(=O)O)C(=O)O; αMeP = C[C@@]1(C(=O)O)CCCN1; Nva = CCC[C@H](N)C(=O)O; Mpa = O=C(O)CCS
Formally, pKi is defined as -log10 of the concentration c, with c in mol/L.

Please review the following examples before continuing.
| Molecule | pKi |
| --- | --- |
| CC(=O)N[C@H]1CSCc2cccc(c2)CSC[C@@H](C(N)=O)NC(=O)[C@@H]2CCCN2C(=O)[C@H](Cc2ccc(O)cc2)NC(=O)[C@H](Cc2cnc[nH]2)NC(=O)[C@H](CC(=O)O)NC(=O)[C@H](Cc2c[nH]c3ccc(F)cc23)NC(=O)[C@H](Cc2c[nH]c3ccc(F)cc23)NC(=O)CNC(=O)[C@H](CCCCN)NC1=O (Ac-CKG[Trp(5-F)][Trp(5-F)]DHYPC-NH2; linker 1-10 via mXylylene) | 7.33 |
| CCC[C@@H]1NC(=O)CCSCc2cccc(c2)CSC[C@@H](C(N)=O)NC(=O)[C@]2(C)CCCN2C(=O)[C@H](Cc2ccc(O)cc2)NC(=O)[C@H](Cc2cnc[nH]2)NC(=O)[C@H](CC(=O)O)NC(=O)[C@H](Cc2c[nH]c3ccc(F)cc23)NC(=O)[C@H](Cc2c[nH]c3ccc(F)cc23)NC(=O)CNC1=O ([Mpa][Nva]G[Trp(5-F)][Trp(5-F)]DHY[αMeP]C-NH2; linker 1-10 via mXylylene) | 7.02 |

Kindly review the next molecule as well.
input: Could you share which pKi value was measured for CN1C(=O)[C@H](Cc2c[nH]c3ccc(F)cc23)NC(=O)[C@H](Cc2c[nH]c3ccc(F)cc23)NC(=O)CNC(=O)[C@H](CCCCN)NC(=O)CCSCc2cccc(c2)CSC[C@@H](C(N)=O)NC(=O)[C@@H]2CCCN2C(=O)[C@H](Cc2ccc(O)cc2)NC(=O)[C@H](Cc2cnc[nH]2)NC(=O)[C@@H]1CC(=O)O ([Mpa]KG[Trp(5-F)][Trp(5-F)][NMeD]HYPC-NH2; linker 1-10 via mXylylene) ?
output: 4.89
